- System: RIPK3 (Homo sapiens (Human), UniProt Q9Y572)
- Sequence (Q9Y572 whole entry, species assumed): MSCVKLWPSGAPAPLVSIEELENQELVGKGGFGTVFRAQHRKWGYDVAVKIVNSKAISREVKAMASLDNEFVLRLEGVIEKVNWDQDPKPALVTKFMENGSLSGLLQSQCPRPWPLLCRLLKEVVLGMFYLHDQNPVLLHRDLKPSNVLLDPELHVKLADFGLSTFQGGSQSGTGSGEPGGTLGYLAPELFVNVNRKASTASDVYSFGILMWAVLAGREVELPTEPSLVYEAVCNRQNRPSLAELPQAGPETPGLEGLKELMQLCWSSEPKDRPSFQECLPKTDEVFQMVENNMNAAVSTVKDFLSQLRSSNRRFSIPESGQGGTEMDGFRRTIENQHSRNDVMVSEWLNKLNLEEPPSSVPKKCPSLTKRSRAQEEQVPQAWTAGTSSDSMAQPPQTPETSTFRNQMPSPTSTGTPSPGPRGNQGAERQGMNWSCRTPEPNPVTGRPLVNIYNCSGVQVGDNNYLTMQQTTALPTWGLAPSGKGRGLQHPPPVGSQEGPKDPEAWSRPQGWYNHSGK
- Procedure summary: RIPK3 HTRF Kinase Assay
- Format: binding
- Run conditions: RIPK3 1 nM; HTRF probe 23 nM; 60 min at room temperature; read-out: IC50 for Inhibition of RIPK3
pIC50: −log10 of the molar value.
Attribute: pIC50

Molecule	pIC50
O=C1NCCc2c1c(-c1cccc(OC(F)(F)F)c1)c(-c1ccncc1)n2CC1CCOCC1	4.82 to 7.00
CC(C)(C)Cn1c2c(c(-c3ccc(F)cc3)c1-c1ccncc1)C(=O)NCC2	4.82 to 7.00
CC(C)Cn1c2c(c(-c3ccc(F)cc3)c1-c1ccncc1)C(=O)NCC2	7.00 to 7.51
COc1cc(F)cc(-c2c3c(n(Cc4ccc(F)cc4C#N)c2-c2ccncc2)CCNC3=O)c1	7.00 to 7.51
CC(C)C(=O)Nc1cc(-c2c(-c3ccc(F)cc3)c3c(n2Cc2ccc(C(F)(F)F)cc2F)CCNC3=O)ccn1	4.82 to 7.00
Cn1c(-c2ccncc2)c(-c2ccc(F)cc2)c2c1C(C)(C)CNC2=O	4.82 to 7.00
Cc1cc(Cn2c3c(c(-c4ccc(F)cc4)c2-c2ccncc2)C(=O)NCC3)no1	7.00 to 7.51
CS(=O)(=O)Nc1cc(-c2c(-c3ccc(F)cc3)c3c(n2CC2CCOCC2)CCNC3=O)ccn1	4.82 to 7.00
O=C1NCCc2c1c(-c1ccc(F)cc1)c(-c1ccncc1)n2Cc1ccc(C2CC2)cc1	7.00 to 7.51
COc1ccc(Cn2c3c(c(-c4ccc(F)cc4)c2-c2ccncc2)C(=O)NCC3)cc1	> 7.52
COC(=O)c1cccc(-c2c3c(n(Cc4ccc(Cl)cc4F)c2-c2ccncc2)CCNC3=O)c1	4.82 to 7.00
O=C1NCCc2c1c(-c1ccc(F)cc1)c(-c1ccncc1)n2Cc1ccc(C(F)(F)F)cc1C(F)(F)F	> 7.52
N#Cc1cc(F)ccc1Cn1c2c(c(-c3cccc(C(F)(F)F)c3)c1-c1ccncc1)C(=O)NCC2	> 7.52
COc1ccc(-c2c3c(n(CC4CCOCC4)c2-c2ccncc2)CCNC3=O)cc1	4.82 to 7.00
CC(=O)Nc1cc(-c2c(-c3ccc(F)cc3)c3c(n2Cc2ccc(F)cc2C#N)CCNC3=O)ccn1	> 7.52
O=C1NCCc2c1c(-c1ccc(F)cc1)c(-c1ccncc1)n2Cc1ccc(Cl)cc1F	> 7.52

====

Attribute: pIC50
- System: RIPK3 (Homo sapiens (Human), UniProt Q9Y572)
- Procedure summary: RIPK3 HTRF Kinase Assay
- Assay type: binding
- Run conditions: read-out: IC50 for Inhibition of RIPK3
pIC50: −log10 of the molar value.

Molecule	pIC50
Cc1ccc(Cn2c3c(c(-c4ccc(F)cc4)c2-c2ccncc2)C(=O)NCC3)cc1 [Example 45]	7.00 to 7.51
O=C1NCCc2c1c(-c1ccc(F)cc1)c(-c1ccncc1)n2CC1CCCNC1 (stereo not shown) [Example 32]	4.82 to 7.00
N#Cc1cc(F)ccc1Cn1c2c(c(-c3cccnc3)c1-c1ccncc1)C(=O)NCC2 [Example 119]	7.00 to 7.51
N#Cc1cc(F)ccc1Cn1c2c(c(-c3cccc(-c4ccccc4)c3)c1-c1ccncc1)C(=O)NCC2 [Example 120]	4.82 to 7.00
N#Cc1cc(F)ccc1Cn1c2c(c(-c3ccc(F)cc3)c1-c1ccnc(F)c1)C(=O)NCC2 [Example 18]	4.82 to 7.00
N#Cc1cc(F)ccc1Cn1c2c(c(-c3ccccc3-c3ccccc3)c1-c1ccncc1)C(=O)NCC2 [Example 125]	4.82 to 7.00
O=C1NCCc2c1c(-c1cccnc1)c(-c1ccncc1)n2CC1CCOCC1 [Example 108]	4.82 to 7.00

====

- System: RIPK3 (Homo sapiens (Human), UniProt Q9Y572)
- Procedure summary: RIPK3 HTRF Kinase Assay
- Assay type: binding
- Run conditions: RIPK3 1 nM; HTRF probe 23 nM; 60 min at room temperature; read-out: IC50 for Inhibition of RIPK3
pIC50: −log10 of the molar value.
Assay metric: pIC50

Molecule	Result
COc1ncc(-c2c(-c3ccc(F)cc3)c3c(n2Cc2ccc(F)cc2C#N)CCNC3=O)cn1	4.82 to 7.00
O=c1[nH]ccc2c1c(-c1ccc(F)cc1)c(-c1ccnc(Cl)c1)n2Cc1ccc(C(F)(F)F)cc1F	4.82 to 7.00
CC(=O)Nc1cc(-c2c(-c3ccc(F)cc3)c3c(n2Cc2ccc(C(F)(F)F)cc2F)CCNC3=O)ccn1	> 7.52
N#Cc1cc(F)ccc1Cn1c2c(c(-c3ccc(Cl)c(Cl)c3)c1-c1ccncc1)C(=O)NCC2	> 7.52
COc1cc(-c2c3c(n(Cc4ccc(F)cc4C#N)c2-c2ccncc2)CCNC3=O)ccn1	> 7.52
CS(=O)(=O)c1ccc(Cn2c3c(c(-c4ccc(F)cc4)c2-c2ccncc2)C(=O)NCC3)cc1	4.82 to 7.00
N#Cc1cccc(Cn2c3c(c(-c4ccc(F)cc4)c2-c2ccncc2)C(=O)NCC3)c1	> 7.52

====

Attribute: pIC50
- System: UniProtKB Q9Y572
- Procedure summary: RIPK3 HTRF Kinase Assay
- Type: binding
- Run conditions: RIPK3 1 nM; HTRF probe 23 nM; 60 min at room temperature; read-out: IC50 for Inhibition of RIPK3
pIC50: −log10 of the molar value.

Molecule	pIC50
CC(=O)Nc1cc(-c2c(-c3ccc(F)cc3)c3c(n2Cc2ccc(C)cc2)CCNC3=O)ccn1	> 7.52
N#CCn1c2c(c(-c3ccc(F)cc3)c1-c1ccncc1)C(=O)NCC2	4.82 to 7.00
CCOC(=O)Nc1cc(-c2c(-c3ccc(F)cc3)c3c(n2CC2CCOCC2)CCNC3=O)ccn1	7.00 to 7.51
Cc1cc(Cn2c3c(c(-c4cccc(N)c4)c2-c2ccncc2)C(=O)NCC3)n(C)n1	4.82 to 7.00
N#Cc1ccc(Cn2c3c(c(-c4ccc(F)cc4)c2-c2ccncc2)C(=O)NCC3)nc1	7.00 to 7.51
N#Cc1cc(F)ccc1Cn1c2c(c(-c3ccc(C(F)(F)F)cc3)c1-c1ccncc1)C(=O)NCC2	7.00 to 7.51
Cc1cc(-c2c3c(n(Cc4ccc(Cl)cc4F)c2-c2ccncc2)CCNC3=O)ccn1	4.82 to 7.00
O=C1NCCc2c1c(-c1ccc(F)cc1)c(-c1ccncc1)n2Cc1c(F)cccc1C(F)(F)F	> 7.52
Cc1cc(Cn2c3c(c(-c4cccc(NC(=O)OC(C)(C)C)c4)c2-c2ccnc(NC(=O)C4CC4)c2)C(=O)NCC3)n(C)n1	4.82 to 7.00
O=C1NCCc2c1c(-c1ccc(F)cc1)c(-c1ccncc1)n2CC(=O)N1CCCC1	7.00 to 7.51
CC(C)OC(=O)Nc1cc(-c2c(-c3ccc(F)cc3)c3c(n2CC2CCOCC2)CCNC3=O)ccn1	4.82 to 7.00
CC(=O)Nc1cccc(-c2c(-c3ccc(F)cc3)c3c(n2Cc2ccc(F)cc2C#N)CCNC3=O)c1	4.82 to 7.00
COc1cnccc1-c1c(-c2ccc(F)cc2)c2c(n1Cc1cc(C)nn1C)CCNC2=O	> 7.52
N#Cc1cc(F)ccc1Cn1c2c(c(-c3ccc(F)cc3)c1-c1cncnc1)C(=O)NCC2	4.82 to 7.00
N#Cc1cc(F)c(Cn2c3c(c(-c4ccc(F)cc4)c2-c2ccncc2)C(=O)NCC3)c(F)c1	> 7.52
N#Cc1ccc(Cn2c3c(c(-c4ccc(F)cc4)c2-c2ccncc2)C(=O)NCC3)c(F)c1	> 7.52

====

Attribute: IC50
- System: RIPK3 (Homo sapiens (Human), UniProt Q9Y572)
- Procedure summary: RIPK3 HTRF Kinase Assay
- Type: binding
- Run conditions: RIPK3 1 nM; HTRF probe 23 nM; 60 min at room temperature; read-out: IC50 for Inhibition of RIPK3
Assay metric: IC50

Compound	Assay metric	Result
O=C1NCCc2c1c(-c1cccc3ccncc13)c(-c1ccncc1)n2CC1CCOCC1 [Example 112]	IC50	100 to 15000 nM
N#Cc1cc(F)ccc1Cn1c2c(c(-c3ccc(OC(F)(F)F)cc3)c1-c1ccncc1)C(=O)NCC2 [Example 122]	IC50	100 to 15000 nM
O=C1NCCc2c1c(-c1ccc(F)cc1)c(-c1ccncc1)n2Cc1ccc(F)cc1F [Example 64]	IC50	< 30 nM
N#Cc1cc(F)ccc1Cn1c2c(c(-c3ccc(F)cc3)c1-c1ccnc(C(F)(F)F)c1)C(=O)NCC2 [Example 16]	IC50	100 to 15000 nM
CC(C)CC(=O)Nc1cc(-c2c(-c3ccc(F)cc3)c3c(n2CC2CCOCC2)CCNC3=O)ccn1 [Example 93]	IC50	100 to 15000 nM
O=C1NCCc2c1c(-c1ccc(F)cc1)c(-c1ccncc1)n2Cc1ccc(OC(F)(F)F)c(Cl)c1 [Example 40]	IC50	100 to 15000 nM
N#Cc1cc(F)ccc1Cn1c2c(c(-c3ccc(F)cc3)c1-c1ccnc(Cl)c1)C(=O)NCC2 [Example 22]	IC50	100 to 15000 nM
Cc1cc(Cn2c3c(c(-c4cccc(NC(=O)OC(C)(C)C)c4)c2-c2ccncc2)C(=O)NCC3)n(C)n1 [Example 171]	IC50	31 to 100 nM
N#Cc1ccc(Cn2c3c(c(-c4ccc(F)cc4)c2-c2ccncc2)C(=O)NCC3)cc1 [Example 28]	IC50	31 to 100 nM
N#Cc1cc(F)ccc1Cn1c2c(c(-c3ccc(F)cc3)c1-c1ccoc1)C(=O)NCC2 [Example 23]	IC50	100 to 15000 nM
O=C1NCCc2c1c(-c1ccc(F)cc1)c(-c1ccnc(Cl)c1)n2Cc1ccc(C(F)(F)F)cc1F [Example 6]	IC50	100 to 15000 nM
O=C1NCCc2c1c(-c1cccc(C(F)(F)F)c1)c(-c1ccncc1)n2CC1CCOCC1 [Example 105]	IC50	100 to 15000 nM
O=C1NCCc2c1c(-c1ccc(F)cc1)c(-c1ccncc1)n2Cc1nnc(C2CC2)o1 [Example 56]	IC50	100 to 15000 nM
O=C1NCCc2c1c(-c1ccncc1F)c(-c1ccncc1)n2Cc1ccc(Cl)cc1F [Example 166]	IC50	100 to 15000 nM
COCCNc1cc(-c2c(-c3ccc(F)cc3)c3c(n2Cc2ccc(C(F)(F)F)cc2F)CCNC3=O)ccn1 [Example 147]	IC50	100 to 15000 nM
O=C1NCCc2c1c(-c1ccc(F)cc1)c(-c1ccncc1)n2Cc1ccccn1 [Example 76]	IC50	100 to 15000 nM
